assay: Pharmacokinetic study: plasma concentration and plasma PK parameters after IV/PO dosing (LC-MS/MS, WinNonlin); format: in vivo, Male SD Rat; conditions: male, Sprague-Dawley, rat, plasma, po, 10 mg/kg, male SD rat, PO 10 mg/kg (equal to freebase), 2 h, individual rats; vehicle 20% HP-β-CD in water (POA, freebase) or water (salts); read-out: concentration in plasma
MEASURED_METRIC: concentration at 2 h (ng/mL)

INSERT INTO assay_data (smiles, assay_result) VALUES
  ('COc1cc2c(cc1OC)[C@@H]1Cc3ccc(O)c(OC)c3CN1CC2', 75.1);

====

assay: Pharmacokinetic study: plasma concentration and plasma PK parameters after IV/PO dosing (LC-MS/MS, WinNonlin); assay type: in vivo, Male SD Rat; details: male, Sprague-Dawley, rat, plasma, iv, 3 mg/kg, male SD rat, IV 3 mg/kg, 24 h, individual rats; read-out: concentration in plasma
MEASURED_METRIC: concentration at 24 h (ng/mL)

INSERT INTO measurements (smiles, measured_metric, assay_result) VALUES
  ('COc1cc2c(cc1OC)[C@@H]1Cc3ccc(O)c(OC)c3CN1CC2', 'concentration at 24 h', 0.5);

====

assay: Solubility studies in water at 2 hours; assay type: physicochemical
MEASURED_METRIC: solubility at 2 h

INSERT INTO assay_data (smiles, measured_metric, assay_result) VALUES
  ('COc1cc2c(cc1OC)[C@@H]1Cc3ccc(O)c(OC)c3CN1CC2', 'solubility at 2 h', '< 1000 µg/mL');

====

assay: Pharmacokinetic study: plasma concentration and plasma PK parameters after IV/PO dosing (LC-MS/MS, WinNonlin); type: in vivo, Male SD Rat; conditions: plasma, PO (group POE), 10 mg/kg, mean of R40-R42
MEASURED_METRIC: AUClast/D, Mean (kg·ng·h/mL/mg)

INSERT INTO measurements (compound, assay_result) VALUES
  ('COc1cc2c(cc1OC)[C@@H]1Cc3ccc(O)c(OC)c3CN1CC2.O=C(O)C(=O)O [TLZ-16 oxalate]', 77.2);

====

assay: Pharmacokinetic study: plasma concentration and plasma PK parameters after IV/PO dosing (LC-MS/MS, WinNonlin); assay type: in vivo, Male SD Rat; settings: male, Sprague-Dawley, rat, plasma, po, 10 mg/kg, male SD rat, PO 10 mg/kg (equal to freebase), 1 h, individual rats; vehicle 20% HP-β-CD in water (POA, freebase) or water (salts); read-out: concentration in plasma
MEASURED_METRIC: concentration at 1 h (ng/mL)

INSERT INTO assay_data (smiles, measured_metric, unit_spec, assay_result) VALUES
  ('COc1cc2c(cc1OC)[C@@H]1Cc3ccc(O)c(OC)c3CN1CC2', 'concentration at 1 h', 'ng/mL', 109);

====

assay: Pharmacokinetic study: plasma concentration and plasma PK parameters after IV/PO dosing (LC-MS/MS, WinNonlin); type: in vivo, Male SD Rat; details: male, Sprague-Dawley, rat, plasma, iv, 3 mg/kg, male SD rat, IV 3 mg/kg, 8 h, mean n=3; read-out: concentration in plasma, Mean
MEASURED_METRIC: concentration at 8 h (ng/mL)

INSERT INTO measurements (compound, measured_metric, assay_result) VALUES
  ('COc1cc2c(cc1OC)[C@@H]1Cc3ccc(O)c(OC)c3CN1CC2 [Compound (1), l-corydalmine]', 'concentration at 8 h', 6.38);

====

# maps each entry to its AUClast/D, Mean
experiment: Pharmacokinetic study: plasma concentration and plasma PK parameters after IV/PO dosing (LC-MS/MS, WinNonlin); format: in vivo, Male SD Rat; settings: male SD rat, PO 10 mg/kg (equal to freebase), plasma, mean n=3; vehicle 20% HP-β-CD in water (POA, freebase) or water (salts)
MEASURED_METRIC: AUClast/D, Mean

INSERT INTO measurements (compound, measured_metric, assay_result) VALUES
  ('COc1cc2c(cc1OC)[C@@H]1Cc3ccc(O)c(OC)c3CN1CC2.Cl [TLZ-16 HCl]', 'AUClast/D, Mean', '89 kg·ng·h/mL/mg'),
  ('COc1cc2c(cc1OC)[C@@H]1Cc3ccc(O)c(OC)c3CN1CC2 [Compound (1), l-corydalmine]', 'AUClast/D, Mean', '78.8 kg·ng·h/mL/mg'),
  ('COc1cc2c(cc1OC)[C@@H]1Cc3ccc(O)c(OC)c3CN1CC2.O=C(O)/C=C\C(=O)O [TLZ-16 maleate]', 'AUClast/D, Mean', '81 kg·ng·h/mL/mg'),
  ('COc1cc2c(cc1OC)C1Cc3ccc(O)c(OC)c3CN1CC2.CS(=O)(=O)O (stereo not shown) [TLZ-16 mesylate]', 'AUClast/D, Mean', '132 kg·ng·h/mL/mg');

This collection of values is drawn from patent US11236081B2.
